assay: Plasma concentration in C57BL/6N mouse at 0.3 mg/kg, po administered for 60 mins followed by dextrose challenge during OGTT method; format: ADME, organism-based
recorded metric: concentration at 1 h
Write the numeric value and follow it with the unit.

Data request: Consider the compound shown here: `CN1C(=O)Cn2c1nc1nc(N3CCC[C@@H](N)C3)n(Cc3cc(F)ccc3C#N)c1c2=O` What is its recorded concentration at 1 h?
Data returned: 2 nM

###

assay: Intrinsic clearance in human hepatocytes assessed per 10^6 cells at 1 uM after 30 to 120 mins by LC-MS/MS analysis; type: ADME, cell-based, Hepatocyte; conditions: read-out: CLH
recorded metric: hepatocyte CLint at 1 µM (µL/min/1e6 cells)
Numbers only, in µL/min/1e6 cells.

Data request: What value of measured hepatocyte CLint at 1 µM is listed for `CN1C(=O)Cn2c1nc1nc(N3CCC[C@@H](N)C3)n(Cc3cc(F)ccc3C#N)c1c2=O` ?
Data returned: 0.1
